# assayed_system: CRBN/DDB1 (Homo sapiens (Human))
# Sequence (Q16531 whole entry partner, species assumed, one chain of several): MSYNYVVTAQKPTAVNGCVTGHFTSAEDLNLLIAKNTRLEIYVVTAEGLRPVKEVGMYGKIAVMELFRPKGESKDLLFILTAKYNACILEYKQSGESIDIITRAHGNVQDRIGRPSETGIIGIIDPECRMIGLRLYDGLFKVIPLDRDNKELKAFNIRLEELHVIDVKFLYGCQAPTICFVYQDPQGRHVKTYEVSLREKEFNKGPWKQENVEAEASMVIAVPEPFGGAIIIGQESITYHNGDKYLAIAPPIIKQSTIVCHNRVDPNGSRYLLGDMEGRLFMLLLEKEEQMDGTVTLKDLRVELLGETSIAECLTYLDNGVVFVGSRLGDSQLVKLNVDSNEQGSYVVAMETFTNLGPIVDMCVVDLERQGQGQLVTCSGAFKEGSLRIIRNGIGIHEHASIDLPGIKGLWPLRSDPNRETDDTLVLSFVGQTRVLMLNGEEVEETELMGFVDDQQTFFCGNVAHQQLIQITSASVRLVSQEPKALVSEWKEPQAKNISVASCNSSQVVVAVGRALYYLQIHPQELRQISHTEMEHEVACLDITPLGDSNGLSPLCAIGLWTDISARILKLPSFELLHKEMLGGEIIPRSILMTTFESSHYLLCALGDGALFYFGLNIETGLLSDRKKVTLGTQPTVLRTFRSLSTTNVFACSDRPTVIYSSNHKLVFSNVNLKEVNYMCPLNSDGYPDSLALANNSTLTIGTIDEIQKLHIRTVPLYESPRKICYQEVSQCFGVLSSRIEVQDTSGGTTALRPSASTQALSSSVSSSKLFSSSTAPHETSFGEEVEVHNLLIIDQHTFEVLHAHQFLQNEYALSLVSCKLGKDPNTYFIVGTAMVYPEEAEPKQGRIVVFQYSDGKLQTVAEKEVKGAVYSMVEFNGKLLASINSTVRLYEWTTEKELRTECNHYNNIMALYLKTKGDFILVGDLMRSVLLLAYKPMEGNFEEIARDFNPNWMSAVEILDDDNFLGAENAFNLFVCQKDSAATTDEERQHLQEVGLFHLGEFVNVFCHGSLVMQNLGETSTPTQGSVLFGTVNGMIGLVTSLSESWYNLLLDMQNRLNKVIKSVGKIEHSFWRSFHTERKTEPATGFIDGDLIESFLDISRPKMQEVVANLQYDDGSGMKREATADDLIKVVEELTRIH
# assay_method_text: IC50 measurements for binding to CRBN/DDB1 (HTRF)
# assay_setup: His tagged CRBN+DDB, Cy5-labeled Thalidomide probe, one hour
Measured IC50 of individual entries

{"compound": "Cn1ccc2c(CN3CCCC3)cc(-c3cc4c(cc3F)C(=O)N(C3CCC(=O)NC3=O)C4)nc21 (stereo not shown)", "assayed_system": "CRBN/DDB1 (Homo sapiens (Human))", "value_type": "IC50", "recorded_measurement": "5 to 10 µM"}

We now examine a further compound.
Input: Item O=C1CCC(N2Cc3cc(-c4cc(CN5CCCC5)c5[nH]ccc5n4)ccc3C2=O)C(=O)N1 (stereo not shown) : provide IC50
Output: 1 to 5 µM

====

# assayed_system: IKZF1 (Homo sapiens (Human), UniProt Q13422+Q96SW2)
# Sequence (Q13422 whole entry): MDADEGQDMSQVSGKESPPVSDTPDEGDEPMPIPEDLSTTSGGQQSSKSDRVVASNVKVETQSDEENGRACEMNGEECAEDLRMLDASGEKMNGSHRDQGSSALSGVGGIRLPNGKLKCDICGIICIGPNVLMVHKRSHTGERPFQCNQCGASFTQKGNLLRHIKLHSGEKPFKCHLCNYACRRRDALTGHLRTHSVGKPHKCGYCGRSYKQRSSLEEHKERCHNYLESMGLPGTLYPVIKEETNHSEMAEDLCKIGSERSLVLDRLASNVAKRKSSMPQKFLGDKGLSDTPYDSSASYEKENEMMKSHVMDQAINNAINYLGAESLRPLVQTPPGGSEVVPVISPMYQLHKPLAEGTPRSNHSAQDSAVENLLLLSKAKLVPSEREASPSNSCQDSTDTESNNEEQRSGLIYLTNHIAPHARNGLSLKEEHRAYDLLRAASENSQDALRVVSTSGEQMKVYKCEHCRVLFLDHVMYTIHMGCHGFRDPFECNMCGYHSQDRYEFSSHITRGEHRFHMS
# Sequence (Q96SW2 whole entry): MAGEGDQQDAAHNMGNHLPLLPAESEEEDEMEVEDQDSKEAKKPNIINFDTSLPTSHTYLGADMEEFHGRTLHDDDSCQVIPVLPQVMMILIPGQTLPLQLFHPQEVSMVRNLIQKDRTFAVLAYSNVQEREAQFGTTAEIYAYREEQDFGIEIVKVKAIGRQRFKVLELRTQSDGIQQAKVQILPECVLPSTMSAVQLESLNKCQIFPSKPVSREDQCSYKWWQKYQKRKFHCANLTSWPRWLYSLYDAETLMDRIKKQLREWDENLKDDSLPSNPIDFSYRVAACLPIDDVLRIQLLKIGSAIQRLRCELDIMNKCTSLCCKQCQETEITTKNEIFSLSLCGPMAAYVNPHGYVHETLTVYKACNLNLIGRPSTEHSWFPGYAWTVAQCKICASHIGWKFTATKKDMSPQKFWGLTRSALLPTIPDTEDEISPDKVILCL
# Sequence (Q16531 2-1140 partner): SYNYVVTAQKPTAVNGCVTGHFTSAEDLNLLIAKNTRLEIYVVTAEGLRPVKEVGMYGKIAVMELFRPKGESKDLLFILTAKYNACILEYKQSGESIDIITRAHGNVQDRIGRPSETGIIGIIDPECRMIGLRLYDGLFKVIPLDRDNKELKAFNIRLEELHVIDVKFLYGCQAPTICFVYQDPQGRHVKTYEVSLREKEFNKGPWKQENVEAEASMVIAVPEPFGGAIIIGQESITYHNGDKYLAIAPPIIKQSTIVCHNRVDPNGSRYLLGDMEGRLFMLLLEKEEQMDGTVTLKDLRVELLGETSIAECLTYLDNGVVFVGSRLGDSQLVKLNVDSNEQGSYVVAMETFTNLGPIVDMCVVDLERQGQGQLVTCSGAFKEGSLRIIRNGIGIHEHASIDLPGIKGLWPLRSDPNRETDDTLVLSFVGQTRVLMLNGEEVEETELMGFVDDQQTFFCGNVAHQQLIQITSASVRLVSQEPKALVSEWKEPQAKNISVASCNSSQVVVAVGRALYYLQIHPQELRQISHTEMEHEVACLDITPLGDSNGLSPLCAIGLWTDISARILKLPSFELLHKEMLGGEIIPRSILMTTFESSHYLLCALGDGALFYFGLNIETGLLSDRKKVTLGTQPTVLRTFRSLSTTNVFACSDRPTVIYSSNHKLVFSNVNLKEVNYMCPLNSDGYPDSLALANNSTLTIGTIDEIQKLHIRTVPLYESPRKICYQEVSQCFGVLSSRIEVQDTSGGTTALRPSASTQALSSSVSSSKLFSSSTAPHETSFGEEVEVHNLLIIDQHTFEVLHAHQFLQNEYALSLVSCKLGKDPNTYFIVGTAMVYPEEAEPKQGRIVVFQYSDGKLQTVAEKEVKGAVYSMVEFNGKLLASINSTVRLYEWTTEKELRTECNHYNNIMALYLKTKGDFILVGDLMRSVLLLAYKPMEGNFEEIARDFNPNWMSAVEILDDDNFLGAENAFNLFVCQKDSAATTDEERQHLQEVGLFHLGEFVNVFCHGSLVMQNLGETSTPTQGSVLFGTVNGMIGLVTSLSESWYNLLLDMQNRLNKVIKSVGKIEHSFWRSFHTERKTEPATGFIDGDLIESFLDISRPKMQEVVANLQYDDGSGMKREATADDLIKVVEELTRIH
# assay_method_text: In vitro IKZF1 HiBit Assay (HEK293T Flp-in-HiBiT-IKZF1 stable cell line)
# Format: cell-based
# assay_setup: HEK293T Flp-in-HiBiT-IKZF1 stable cell line, 6 hrs incubation; read-out: IKZF1 HiBit DC50
value_type: DC50

Sample answers from the record:
{"compound": "O=C1CCC(N2Cc3cc(-c4cc(CN5CCCC5)c5ncn(C6CCC6)c5n4)ccc3C2=O)C(=O)N1 (stereo not shown)", "value_type": "DC50", "recorded_measurement": "> 10 µM"}
{"compound": "O=C1CC[C@H](N2Cc3cc(-c4cc(CN5CCCC5)c5ccn(-c6ncco6)c5n4)ccc3C2=O)C(=O)N1", "value_type": "DC50", "recorded_measurement": "> 10 µM"}
{"compound": "CC(C)Nc1n[nH]c2c(CN3CC4COCC4C3)cc(-c3ccc4c(c3F)CN(C3CCC(=O)NC3=O)C4=O)nc12 (stereo not shown)", "value_type": "DC50", "recorded_measurement": "> 10 µM"}

We now examine a further compound.
Input: Item Cn1cc2c(CN3CCCC3)cc(-c3ccc4c(c3)CN(C3CCC(=O)NC3=O)C4=O)nc2n1 (stereo not shown) : provide DC50
Output: 0.01 to 0.1 µM

====

# assayed_system: IKZF2 (Homo sapiens (Human), UniProt Q96SW2+Q9UKS7)
# Sequence (Q9UKS7 whole entry): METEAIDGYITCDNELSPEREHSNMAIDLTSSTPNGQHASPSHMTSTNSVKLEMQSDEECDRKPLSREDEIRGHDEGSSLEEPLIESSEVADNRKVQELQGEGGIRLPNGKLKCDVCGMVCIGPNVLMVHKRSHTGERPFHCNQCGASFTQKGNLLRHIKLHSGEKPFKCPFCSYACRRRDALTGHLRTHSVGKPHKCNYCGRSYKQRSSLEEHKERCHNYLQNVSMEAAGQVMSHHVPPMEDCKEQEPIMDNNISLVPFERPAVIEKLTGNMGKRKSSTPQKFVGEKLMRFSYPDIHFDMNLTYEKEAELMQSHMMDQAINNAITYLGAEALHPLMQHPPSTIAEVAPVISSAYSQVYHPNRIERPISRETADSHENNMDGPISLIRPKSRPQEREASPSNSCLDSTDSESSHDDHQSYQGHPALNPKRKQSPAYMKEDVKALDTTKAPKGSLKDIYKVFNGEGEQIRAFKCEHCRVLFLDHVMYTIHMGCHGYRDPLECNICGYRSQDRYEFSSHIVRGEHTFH
# Sequence (Q96SW2 whole entry): as the sequence (Q96SW2 whole entry) above
# Sequence (Q16531 2-1140 partner): as the sequence (Q16531 2-1140 partner) above
# assay_method_text: In vitro IKZF2 HiBit Assay (HEK293T Flp-in-HiBiT cells)
# Assay type: cell-based
# assay_setup: HEK-293T; HEK293T Flp-in-HiBiT cells, 6 hrs incubation; read-out: IKZF2 HiBit Dmax (%)
value_type: Dmax

{"compound": "Cn1ccc2c(CN3CCC(n4ccnc4)CC3)cc(-c3ccc4c(c3)CN(C3CCC(=O)NC3=O)C4=O)nc21 (stereo not drawn) [Example 115]", "Dmax": "60 to 80%"}
{"compound": "O=C1CCC(N2Cc3cc(-c4cc(CN5CCCC5)c5ccn(C6COC6)c5n4)ccc3C2=O)C(=O)N1 (stereo not drawn) [Example 129]", "Dmax": "> 80%"}
{"compound": "C[C@@H]1CC[C@@H](C)N1Cc1cc(-c2ccc3c(c2)CN(C2CCC(=O)NC2=O)C3=O)nc2c1ccn2C (stereo partly drawn) [Example 108]", "Dmax": "60 to 80%"}

Input: Item CC(C)C1CCN(Cc2cc(-c3ccc4c(c3)CN(C3CCC(=O)NC3=O)C4=O)nc3[nH]ccc23)C1 (stereo not drawn) [Example 146] : provide Dmax
Output: > 80%

Input: Item Cn1ccc2c(CN3CCCC3)nc(-c3ccc4c(c3)CN(C3CCC(=O)NC3=O)C4=O)nc21 (stereo not drawn) [Example 184] : provide Dmax
Output: 60 to 80%

Input: Item O=C1CCC(N2Cc3cc(-c4nc(CN5CCCC5)c5ccn(C6CCC6)c5n4)ccc3C2=O)C(=O)N1 (stereo not drawn) [Example 217] : provide Dmax
Output: 60 to 80%

Input: Item O=C1CCC(N2Cc3cc(-c4cc(CN5CCCC5)c5cc[nH]c5n4)c(F)cc3C2=O)C(=O)N1 (stereo not drawn) [Example 122] : provide Dmax
Output: 20 to 40%

Input: Item CC1CCN(Cc2cc(-c3ccc4c(c3)CN(C3CCC(=O)NC3=O)C4=O)n3cncc3c2)C1 (stereo not drawn) [Example 6] : provide Dmax
Output: 60 to 80%

Input: Item COC1CC(n2ccc3c(CN4CCCC4)cc(-c4ccc5c(c4)CN(C4CCC(=O)NC4=O)C5=O)nc32)C1 (stereo not drawn) [Example 255] : provide Dmax
Output: > 80%

Input: Item CN1CC(n2ncc3c(CN4CCCC4)cc(-c4ccc5c(c4)CN(C4CCC(=O)NC4=O)C5=O)nc32)C1 (stereo not drawn) [Example 261] : provide Dmax
Output: > 80%

Input: Item O=C1CCC(N2Cc3cc(-c4cc(CN5CCCC5)c5ncccc5n4)ccc3C2=O)C(=O)N1 (stereo not drawn) [Example 104] : provide Dmax
Output: > 80%

Input: Item O=C1CCC(N2Cc3cc(-c4cc(CN5CCCC5)c5c(C(F)(F)F)n[nH]c5n4)ccc3C2=O)C(=O)N1 (stereo not drawn) [Example 134] : provide Dmax
Output: > 80%
